Source: patent US20210221899A1

target: T1, rat NGF (rat, UniProt P25427 122-241); test: SPR (Biacore T200), 100 nM mAb on NGF chip, similarity to parent mAb
T1 construct: also called rN
T1 sequence (P25427 122-241 limits assumed): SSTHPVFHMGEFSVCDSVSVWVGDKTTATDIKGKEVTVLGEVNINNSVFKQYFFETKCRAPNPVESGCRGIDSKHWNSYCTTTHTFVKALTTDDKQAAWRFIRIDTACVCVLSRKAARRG
ASSAY READOUT: Percent Similarity Score (KD on rN) (%)
Answers are plain numbers, in %.

1. can48L2VH_I51A (antibody, V domains shown, CDR scanning mutant of ZTS-842 (48L2)) VH: EVQLVESGGDLVKPGGSLRLSCVASGFTFSTYGINWVRQAPGKGLQWVAYASSGGSSTYYADPVKGRFTISRDDAKNMLYLQMNSLRAEDTAIYYCAGSRYTYAYGGGYEFHFWGQGTLVTVSS VL: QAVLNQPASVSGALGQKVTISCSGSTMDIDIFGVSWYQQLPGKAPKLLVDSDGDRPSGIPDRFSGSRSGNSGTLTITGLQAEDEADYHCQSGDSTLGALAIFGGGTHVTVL ... 37.2

Look up Percent Similarity Score (KD on rN) for this binder: can48L2VH_H112A (antibody, V domains shown, CDR scanning mutant of ZTS-842 (48L2)) VH: EVQLVESGGDLVKPGGSLRLSCVASGFTFSTYGINWVRQAPGKGLQWVAYISSGGSSTYYADPVKGRFTISRDDAKNMLYLQMNSLRAEDTAIYYCAGSRYTYAYGGGYEFAFWGQGTLVTVSS VL: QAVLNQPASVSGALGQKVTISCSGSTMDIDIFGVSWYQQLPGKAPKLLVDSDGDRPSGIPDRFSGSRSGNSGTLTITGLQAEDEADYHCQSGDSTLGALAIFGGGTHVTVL
98.5
